Biological target: glucocorticoid receptor (Homo sapiens)
Construct: endogenous in cells
Sequence (P04150 1-777): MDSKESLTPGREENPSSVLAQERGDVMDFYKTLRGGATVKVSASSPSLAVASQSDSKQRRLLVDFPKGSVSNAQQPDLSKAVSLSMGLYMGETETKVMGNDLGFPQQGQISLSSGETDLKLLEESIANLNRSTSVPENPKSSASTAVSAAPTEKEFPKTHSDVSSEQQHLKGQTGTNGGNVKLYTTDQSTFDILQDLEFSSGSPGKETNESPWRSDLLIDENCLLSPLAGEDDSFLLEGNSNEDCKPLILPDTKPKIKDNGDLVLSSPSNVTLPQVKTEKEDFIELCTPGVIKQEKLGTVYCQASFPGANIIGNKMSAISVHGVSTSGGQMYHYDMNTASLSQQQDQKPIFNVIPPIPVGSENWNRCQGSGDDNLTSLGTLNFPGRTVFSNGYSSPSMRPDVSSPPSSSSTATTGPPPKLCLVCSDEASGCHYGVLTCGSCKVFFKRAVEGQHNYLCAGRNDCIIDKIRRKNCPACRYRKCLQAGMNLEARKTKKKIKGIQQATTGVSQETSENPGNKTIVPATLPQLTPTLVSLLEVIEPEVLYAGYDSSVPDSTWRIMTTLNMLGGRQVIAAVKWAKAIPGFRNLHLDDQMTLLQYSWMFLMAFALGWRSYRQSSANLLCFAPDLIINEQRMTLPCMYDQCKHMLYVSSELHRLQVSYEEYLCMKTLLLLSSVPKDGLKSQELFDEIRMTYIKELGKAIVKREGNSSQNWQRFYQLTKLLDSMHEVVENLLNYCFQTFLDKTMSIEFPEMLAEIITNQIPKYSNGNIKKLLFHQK
Test: Ligand binding assay (GRBind), 3H-dexamethasone displacement in HeLa cell lysate
Conditions: 3H-DEX tracer
Protocol: Binding Buffer: TEGM (10 mM Tris-HCl, 1 mM EDTA, 10% glycerol, 1 mM betamecaptoethanol, 10 mM Sodium Molybdate, pH 7.2) 50% HAP Slurry: Calbiochem Hydroxylapatite, Fast Flow, in 10 mM Tris, pH 8.0 and 1 mM EDTA. Wash Buffer: 40 mM Tris, pH7.5, 100 mM KCl, 1 mM EDTA and 1 mM EGTA. […] 25 μL of ^3H-DEX (6 nM) trace and 25 μL, compound solution are first mixed together, followed by addition of 50 μL receptor solution. […] IC50s are calculated using DEX as a reference.
Listed here: items and their measured pKi.
Please note pKi is a logarithmic value: minus log10 of concentration in mol/L. Answer with that number alone.

Example compounds with recorded pKi:
1. CC[C@]12Cc3cnn(-c4ccc(F)cc4)c3C=C1CC[C@@]2(O)CC(O)c1ncccc1Cl (stereo partly drawn) [Example 70]: 8.15
2. CC[C@]12Cc3cnn(-c4cccnc4)c3C=C1CC[C@@]2(O)CCc1cccc(F)c1C(N)=O [Example 14]: 8.06
3. CC[C@]12Cc3cnn(-c4cccnc4)c3C=C1CC[C@@]2(O)CCc1ccccc1C(N)=O [Example 13]: 7.55
4. CC(C)(CO)NC(=O)c1ccccc1CC[C@]1(O)CCC2=Cc3c(cnn3-c3ccc(F)cc3)C[C@@]21C1CC1 [Example 45]: 8.68
5. NC(=O)C(O)c1ccccc1CC[C@]1(O)CCC2=Cc3c(cnn3-c3ccc(F)cc3)C[C@@]21C1CC1 (single isomer, unassigned) [Example 3b]: 8.75
6. CC[C@]12Cc3cnn(-c4cccnc4)c3C=C1CC[C@@]2(O)CCc1cccc(F)c1C#N [Example 10]: 8.59
7. N#Cc1ccccc1CC[C@]1(O)CCC2=Cc3c(cnn3-c3ccccc3)C[C@@]21C1CC1 [Example 27]: 9.00
8. CC[C@]12Cc3cnn(-c4ccc(F)cc4)c3C=C1CC[C@@]2(O)CCc1ncccc1S(=O)(=O)C(C)C [Example 62]: 8.39

Just so you know, measured pKi for CC[C@]12Cc3cnn(-c4ccc(F)cc4)c3C=C1CC[C@@]2(O)CC(O)c1ccccn1 (stereo partly drawn) [Example 68] came out at 8.57

Just so you know, measured pKi for CC[C@]12Cc3cnn(-c4ccc(F)cc4)c3C=C1CC[C@@]2(O)CCc1ncccc1F [Example 17] came out at 8.84

Just so you know, measured pKi for N#Cc1c(F)cccc1CC[C@]1(O)CCC2=Cc3c(cnn3-c3ccccc3)C[C@@]21C1CC1 [Example 28] came out at 8.91

Just so you know, measured pKi for CC[C@]12Cc3cnn(-c4ccccc4)c3C=C1CC[C@@]2(O)CC(O)c1ccccn1 (single isomer, unassigned) [Example 67b] came out at 8.26

Just so you know, measured pKi for CCS(=O)(=O)c1ccccc1CC[C@]1(O)CCC2=Cc3c(cnn3-c3ccc(F)cc3)C[C@@]21C1CC1 [Example 59] came out at 8.87

Just so you know, measured pKi for NC(=O)c1c(C2CC2)ccnc1CC[C@]1(O)CCC2=Cc3c(cnn3-c3ccc(F)cc3)C[C@@]21C1CC1 [Example 49] came out at 8.57

Just so you know, measured pKi for OCc1ccccc1CC[C@]1(O)CCC2=Cc3c(cnn3-c3ccc(F)cc3)C[C@@]21C1CC1 [Example 2] came out at 8.88

* * *

Biological target: human GR (Homo sapiens, UniProt P04150)
Construct: naturally expresses the human GR; endogenous in cells
Assay: Trans-activation modulation of glucocorticoid receptor (GRAMMER), MMTV-LUC reporter in A549 cells
Format: cell-based
Conditions: A549 cells; IP = inflection point; read-out: Transactivation A549 Cells Grammer IP
pEC50: −log10 of the molar value.
If the reported pEC50 equals or exceeds 7, assign TRUE. If not, assign FALSE.

[ask] Is pEC50 for OC(C[C@]1(O)CCC2=Cc3c(cnn3-c3ccc(F)cc3)C[C@@]21C1CC1)c1ccc(F)cn1 (single isomer, unassigned) [Example 79a] at or above 7?
[reply] FALSE

* * *

Target: human GR (Homo sapiens, UniProt P04150)
Construct: naturally expresses the human GR; endogenous in cells
Sequence (P04150 1-777): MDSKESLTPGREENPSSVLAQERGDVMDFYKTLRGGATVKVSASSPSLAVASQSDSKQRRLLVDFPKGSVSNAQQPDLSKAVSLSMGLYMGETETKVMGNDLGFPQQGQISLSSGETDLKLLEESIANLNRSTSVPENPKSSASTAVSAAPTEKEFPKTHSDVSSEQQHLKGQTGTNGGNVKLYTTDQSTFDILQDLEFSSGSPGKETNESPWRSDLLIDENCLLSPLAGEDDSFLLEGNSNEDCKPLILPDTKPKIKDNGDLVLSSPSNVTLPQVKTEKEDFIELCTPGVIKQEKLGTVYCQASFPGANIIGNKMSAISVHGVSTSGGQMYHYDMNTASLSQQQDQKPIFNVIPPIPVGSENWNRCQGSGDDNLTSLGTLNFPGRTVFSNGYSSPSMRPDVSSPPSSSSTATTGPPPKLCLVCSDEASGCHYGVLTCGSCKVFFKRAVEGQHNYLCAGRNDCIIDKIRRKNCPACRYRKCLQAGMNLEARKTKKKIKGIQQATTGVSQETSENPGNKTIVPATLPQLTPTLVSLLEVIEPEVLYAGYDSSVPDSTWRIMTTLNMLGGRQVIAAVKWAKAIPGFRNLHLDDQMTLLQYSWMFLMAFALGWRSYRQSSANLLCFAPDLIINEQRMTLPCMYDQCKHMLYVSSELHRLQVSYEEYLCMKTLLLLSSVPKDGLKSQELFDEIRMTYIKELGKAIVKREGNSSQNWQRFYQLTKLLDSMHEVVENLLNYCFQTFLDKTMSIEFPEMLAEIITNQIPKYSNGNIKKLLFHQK
Test: Trans-activation modulation of glucocorticoid receptor (GRAMMER), MMTV-LUC reporter in A549 cells
Assay type: cell-based
Details: A549 cells; IP = inflection point; read-out: Transactivation A549 Cells Grammer IP
measure name: pEC50
Please note pEC50 is a logarithmic value: minus log10 of concentration in mol/L. Answer with that number alone.

Example compounds with recorded pEC50:
1. CC[C@]12Cc3cnn(-c4ccc(F)cc4)c3C=C1CC[C@@]2(O)CCc1cc(C)ccn1 [Example 33]: 7.14
2. CC[C@]12Cc3cnn(-c4ccc(F)cc4)c3C=C1CC[C@@]2(O)CC1OC(=O)c2ccccc21 (stereo partly shown) [Example 71]: 7.11
3. CC[C@]12Cc3cnn(-c4ccc(F)cc4)c3C=C1CC[C@@]2(O)CCc1cccc(F)c1CC(N)=O [Example 60]: 7.42
4. CC[C@]12Cc3cnn(-c4ccc(F)cc4)c3C=C1CC[C@@]2(O)CC(O)c1c(F)ccnc1Cl (stereo partly shown) [Example 74]: 7.19
5. CC[C@]12Cc3cnn(-c4ccc(F)cc4)c3C=C1CC[C@@]2(O)CCc1cc(F)ccn1 [Example 18]: 7.28

Entry N#Cc1cccnc1CC[C@]1(O)CCC2=Cc3c(cnn3-c3ccc(F)cc3)C[C@@]21C1CC1 [Example 31] ; assay system human GR (Homo sapiens, UniProt P04150); pEC50 recorded at 8.05

Entry O[C@@]1(CCc2cc(C(F)(F)F)ccn2)CCC2=Cc3c(cnn3-c3ccc(F)cc3)C[C@@]21C1CC1 [Example 32] ; assay system human GR (Homo sapiens, UniProt P04150); pEC50 recorded at 7.19

Numbers sourced from patent US20120214847A1.
